Assay: Dissociation constant for binding to SH2 domain of Phosphatidylinositol 3-kinase p85 subunit
readout label: pKd
pKd is a log-scale quantity: -log10 of the concentration expressed in molar.

Q. Would you mind telling me what pKd value was observed for `O=C(O)Cc1cc(=O)oc2cc(O)ccc12` ?
A. 5.03

---

// each record: one item and its pKd for Tyrosine-protein kinase Fyn (Homo sapiens, UniProt P06241)
Formally, pKd is defined as -log10 of the concentration c, with c in mol/L.

Q. For the molecule `O=C(O)c1ccsc1` , what pKd is on record?
A. 6.15

Q. Also, `O=C(O)Cc1cc(=O)oc2cc(O)ccc12` please.
A. 6.82

Q. Queued: `O=C(O)c1cc(C(=O)O)cc(S(=O)(=O)O)c1`
A. 7.22
